Each recorded value in this set is attributed to ChEMBL document CHEMBL4673363.

System: Aspergillus flavus
Assay: Antifungal activity against Aspergillus flavus ATCC 3631
Format: functional
READOUT KIND: MIC

Past entries and their recorded results:
STRUCTURE AS SMILES | MIC
Cc1cc(C2=CCN(C(=N)N)CC2)ccc1-c1nnc(-c2ccc(C3=CCN(C(=N)N)CC3)cc2)o1 | 0.31 µg/mL
Cn1c(-c2ccc(C3=CCN(C(=N)N)C3)cc2)nnc1-c1ccc(C2=CCN(C(=N)N)C2)cc1 | 0.39 µg/mL
Cn1c(-c2ccc(C3CCN(C(=N)N)CC3)cc2)nnc1-c1ccc(C2CCN(C(=N)N)CC2)cc1 | 1.56 µg/mL

Please look at the following molecule next.
Exercise: Find the measured MIC of CCn1c(-c2ccc(C3=CCN(C(=N)N)CC3)cc2)nnc1-c1ccc(C2=CCN(C(=N)N)CC2)cc1 with Aspergillus flavus as test system.
Solution: < 0.012 µg/mL

* * *

Hi there, I'd appreciate the recorded MIC for every entry that follows.
Assay: Antifungal activity against Fusarium falciforme ATCC 3636
Format: functional
Give bare numbers, in µg/mL.

Past entries and their recorded results:
STRUCTURE AS SMILES | MIC [µg/mL]
C[C@@H]1[C@H](O)[C@@H](C)/C=C/C=C/C=C/C=C/C=C/C=C/C=C/[C@H](O[C@@H]2O[C@H](C)[C@@H](O)[C@H](N)[C@@H]2O)C[C@@H]2O[C@](O)(C[C@@H](O)C[C@@H](O)[C@H](O)CC[C@@H](O)C[C@@H](O)CC(=O)O[C@H]1C)C[C@H](O)[C@H]2C(=O)O | 3.13
Cc1cc(-c2nnc(-c3ccc(C4=CCN(C(=N)N)CC4)cc3)o2)ccc1C1=CCN(C(=N)N)CC1 | 0.39
Cn1c(-c2ccc(C3=CCN(C(=N)N)C3)cc2)nnc1-c1ccc(C2=CCN(C(=N)N)C2)cc1 | 0.05
N=C(N)N1CC=C(c2ccc(-c3nnc(-c4ccc(C5=CCN(C(=N)N)CC5)cc4)o3)cc2)CC1 | 0.39

Please look at the following molecule next.
Exercise: For the molecule CC[C@@H]([C@H](C)O)n1ncn(-c2ccc(N3CCN(c4ccc(OC[C@@H]5CO[C@@](Cn6cncn6)(c6ccc(F)cc6F)C5)cc4)CC3)cc2)c1=O , report MIC.
Solution: 0.78

* * *

Assay: Cytotoxicity against human HepG2 cells assessed as reduction in metabolic activity measured after 24 hrs
Format: ADME, cell-based
READOUT KIND: CC50 at 24 h

Exercise: For the molecule CC(C)n1c(-c2ccc(C3=CCN(C(=N)N)CC3)cc2)nnc1-c1ccc(C2=CCN(C(=N)N)CC2)cc1 , report CC50 at 24 h.
Solution: 751 µM

* * *

Hi there, I'd appreciate the recorded log10 MIC for every entry that follows.
System: Aspergillus flavus
Experiment: Antifungal activity against Aspergillus flavus ATCC 3631
Format: functional
Friendly reminder: values = log10 of MIC, unit mg/L.

Past entries and their recorded results:
STRUCTURE AS SMILES | log10 MIC
Cc1cc(C2=CCN(C(=N)N)CC2)ccc1-c1nnc(-c2ccc(C3=CCN(C(=N)N)CC3)cc2)n1C | -0.41
N=C(N)N1CC=C(c2ccc(-c3nnc(-c4ccc(C5=CCN(C(=N)N)CC5)cc4)o3)cc2)CC1 | 0.50
N=C(N)N1CC=C(c2ccc(-c3nnc(-c4ccc(C5=CCN(C(=N)N)CC5)cc4)n3C3CCCCC3)cc2)CC1 | -0.11

Each of the following entries comes with a recorded value; kindly state log10 MIC for each.
1. C[C@@H]1[C@H](O)[C@@H](C)/C=C/C=C/C=C/C=C/C=C/C=C/C=C/[C@H](O[C@@H]2O[C@H](C)[C@@H](O)[C@H](N)[C@@H]2O)C[C@@H]2O[C@](O)(C[C@@H](O)C[C@@H](O)[C@H](O)CC[C@@H](O)C[C@@H](O)CC(=O)O[C@H]1C)C[C@H](O)[C@H]2C(=O)O
2. CC[C@@H]([C@H](C)O)n1ncn(-c2ccc(N3CCN(c4ccc(OC[C@@H]5CO[C@@](Cn6cncn6)(c6ccc(F)cc6F)C5)cc4)CC3)cc2)c1=O
3. Cn1c(-c2ccc(C3=CCN(C(=N)N)CC3)cc2)nnc1-c1ccc(C2=CCN(C(=N)N)CC2)cc1
4. Cc1cc(-c2nnc(-c3ccc(C4=CCN(C(=N)N)CC4)cc3)o2)ccc1C1=CCN(C(=N)N)CC1
5. Cc1cc(-c2nnc(-c3ccc(C4=CCN(C(=N)N)CC4)c(C)c3)n2C)ccc1C1=CCN(C(=N)N)CC1

Solution:
[0.50, -0.11, -1.00, 0.80, 0.19]

* * *

Assay: Solubility in 10% 2-hydroxypropyl-B-cyclodextrin
Type: physicochemical
READOUT KIND: solubility

Exercise: For the molecule CC(C)n1c(-c2ccc(C3=CCN(C(=N)N)CC3)cc2)nnc1-c1ccc(C2=CCN(C(=N)N)CC2)cc1 , report solubility.
Solution: ≤ 5000 µg/mL

* * *

Target: UniProt:P05177
Sequence (P05177 whole entry): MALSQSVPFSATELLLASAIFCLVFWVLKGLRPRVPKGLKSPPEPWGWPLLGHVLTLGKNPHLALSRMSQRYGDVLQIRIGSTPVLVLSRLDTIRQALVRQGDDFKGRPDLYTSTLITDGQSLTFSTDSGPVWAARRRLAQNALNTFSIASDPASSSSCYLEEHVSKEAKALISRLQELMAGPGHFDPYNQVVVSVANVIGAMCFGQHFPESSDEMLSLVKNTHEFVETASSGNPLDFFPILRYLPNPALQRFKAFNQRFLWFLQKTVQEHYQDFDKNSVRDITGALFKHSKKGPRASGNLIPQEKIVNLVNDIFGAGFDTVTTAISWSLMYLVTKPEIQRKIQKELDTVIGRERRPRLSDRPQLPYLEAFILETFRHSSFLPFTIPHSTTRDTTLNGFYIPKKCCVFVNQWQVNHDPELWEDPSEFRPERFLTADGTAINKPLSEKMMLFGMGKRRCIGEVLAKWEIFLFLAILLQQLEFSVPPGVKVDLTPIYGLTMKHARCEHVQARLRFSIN
Assay: Inhibition of CYP1A2 in human liver microsomes at 10 uM using phenacetin as substrate measured for 10 to 30 mins in presence of NADPH by LC-MS/MS analysis relative to control
Format: ADME
Settings: probe phenacetin, time 10-30 min
READOUT KIND: inhibition at 10 µM (%)
Give bare numbers, in %.

Exercise: For the compound CC(C)n1c(-c2ccc(C3=CCN(C(=N)N)CC3)cc2)nnc1-c1ccc(C2=CCN(C(=N)N)CC2)cc1 , report inhibition at 10 µM.
Solution: 0

* * *

Experiment: Cytotoxicity against mouse 3T3 cells assessed as reduction in metabolic activity measured after 24 hrs
Type: ADME, cell-based
READOUT KIND: CC50 at 24 h (µM)
Give bare numbers, in µM.

Exercise: For the compound CC(C)n1c(-c2ccc(C3=CCN(C(=N)N)CC3)cc2)nnc1-c1ccc(C2=CCN(C(=N)N)CC2)cc1 , report CC50 at 24 h.
Solution: 297

* * *

Test: Antifungal activity against Fusarium falciforme ATCC 3636
Assay type: functional
READOUT KIND: MIC (µg/mL)
One number for each entry, in µg/mL.

Past entries and their recorded results:
STRUCTURE AS SMILES | NUMBER
Cc1cc(C2=CCN(C(=N)N)CC2)ccc1-c1nnc(-c2ccc(C3=CCN(C(=N)N)CC3)cc2C)n1C | 0.78
Cn1c(-c2ccc(N3CCN(C(=N)N)CC3)cc2)nnc1-c1ccc(N2CCN(C(=N)N)CC2)cc1 | 0.39
Cc1cc(-c2nnc(-c3ccc(C4=CCN(C(=N)N)CC4)c(C)c3)n2C)ccc1C1=CCN(C(=N)N)CC1 | 0.78
COCCn1c(-c2ccc(C3=CCN(C(=N)N)CC3)cc2)nnc1-c1ccc(C2=CCN(C(=N)N)CC2)cc1 | 0.05

Each of the following entries comes with a recorded value; kindly state MIC for each.
1. Cn1c(-c2ccc(C3=CCN(C(=N)N)CC3)cc2)nnc1-c1ccc(C2=CCN(C(=N)N)CC2)cc1
2. N=C(N)N1CC=C(c2ccc(-c3nnc(-c4ccc(C5=CCN(C(=N)N)CC5)cc4)n3Cc3ccccc3)cc2)CC1

Solution:
1. 0.024
2. 0.1

* * *

Target: CYP2C19 (Homo sapiens)
Sequence (P33261 whole entry): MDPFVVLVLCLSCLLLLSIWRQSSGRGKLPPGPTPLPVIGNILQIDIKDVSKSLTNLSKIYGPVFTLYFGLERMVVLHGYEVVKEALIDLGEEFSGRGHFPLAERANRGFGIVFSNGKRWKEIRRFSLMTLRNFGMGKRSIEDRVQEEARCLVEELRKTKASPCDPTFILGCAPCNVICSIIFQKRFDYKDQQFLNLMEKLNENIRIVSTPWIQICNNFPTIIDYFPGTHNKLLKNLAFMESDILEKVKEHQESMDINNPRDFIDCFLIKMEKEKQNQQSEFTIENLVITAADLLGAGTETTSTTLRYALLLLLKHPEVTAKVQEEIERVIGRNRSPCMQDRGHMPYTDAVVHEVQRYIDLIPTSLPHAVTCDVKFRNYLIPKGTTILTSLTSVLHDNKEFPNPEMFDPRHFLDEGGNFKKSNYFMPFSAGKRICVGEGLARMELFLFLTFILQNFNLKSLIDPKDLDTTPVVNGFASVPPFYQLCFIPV
Experiment: Inhibition of CYP2C19 in human liver microsomes at 10 uM using S-mephenytoin as substrate measured for 10 to 30 mins in presence of NADPH by LC-MS/MS analysis relative to control
Format: ADME
Settings: probe S-mephenytoin, time 10-30 min
READOUT KIND: inhibition at 10 µM
The answer consists of two parts: a number and, after it, its unit.

Exercise: Find the measured inhibition at 10 µM of CC(C)n1c(-c2ccc(C3=CCN(C(=N)N)CC3)cc2)nnc1-c1ccc(C2=CCN(C(=N)N)CC2)cc1 with CYP2C19 (Homo sapiens) as test system.
Solution: 10.3%

* * *

Experiment: Selectivity index, ratio of CC50 for mouse 3T3 cells to MIC for candida albicans
Format: toxicity
Settings: read-out: Selectivity Index
READOUT KIND: selectivity ratio

Exercise: For the compound CC(C)n1c(-c2ccc(C3=CCN(C(=N)N)CC3)cc2)nnc1-c1ccc(C2=CCN(C(=N)N)CC2)cc1 , report selectivity ratio.
Solution: > 1000
